Method: Drug concentration in nude mouse plasma at 10 mg/kg after 1 hr
Format: ADME, organism-based
Design: dose 10 mg/kg
Observed property: concentration at 1 h (ng/mL)
Write the value in ng/mL as a bare number.

So for O=C1NCc2cccc(-c3cc4cc(OCCN5CCCCC5)ccc4[nH]3)c21 , the logged concentration at 1 h turned out to be 160

====

I'd appreciate it if you could supply IC50 values for the items below.

Form field IC50 for item CCN1CCN(CCCOc2ccc3[nH]c(-c4cccc5c4C(=O)NC5)cc3c2)CC1 on Cyclin-dependent kinase 1 (Homo sapiens, UniProt P06493): > 100 µM

Cyclin-dependent kinase 1 (Homo sapiens, UniProt P06493) data for CN1Cc2cccc(-c3cccn3C(=O)OC(C)(C)C)c2C1=O ; its IC50: > 100 µM

Kindly note: Cyclin-dependent kinase 1 (Homo sapiens, UniProt P06493), O=C1NCc2cccc(-c3cc4cc(OCCCO)ccc4[nH]3)c21 , IC50 value reported: > 100 µM

For the compound O=C1NCc2cccc(-c3cc4cc(O)ccc4[nH]3)c21 , the measured IC50 on Cyclin-dependent kinase 1 (Homo sapiens, UniProt P06493) was 13.3 µM
